- subject of test: T1, hK1 (human tissue kallikrein 1), recombinant (human, UniProt P06870 25-262)
- T1 construct: Expressed in P. pastoris from KLK1 cDNA and purified; enzymatically active; also called KLK1; Recombinant (Pichia) Kallikrein
- test name: SPR
endpoint name: kon (M⁻¹ s⁻¹)
Give just the numeric value; M⁻¹ s⁻¹ need not be written.

Below are worked cases with known answers.
M0102-C12 (Fab, V domains shown) VH: EVQLLESGGGLVQPGGSLRLSCAASGFTFSHYLMGWVRQAPGKGLEWVSVIWPSGGITKYADSVKGRFTISRDNSKNTLYLQMNSLRAEDTAVYYCARGNGGFDSWGQGTLVTVSS VL: DIQMTQSPSSLSASVGDRVTITCRASQGISNYLAWYQQKPGKVPKLLIYAASTLQSGVPSRFSGSGSGTDFTLTISSLQPEDVATYYCQKYNSAPWTFGQGTKVEIKR
7.39e+07
M0131-A03 (Fab, V domains shown) VH: EVQLLESGGGLVQPGGSLRLSCAASGFTFSWYTMGWVRQAPGKGLEWVSVIYPSGGMTKYADSVKGRFTISRDNSKNTLYLQMNSLRAEDTAVYYCARTSGGTPWGFWGQGTLVTVSS VL: AQYELTQPASVSGSPGQSITISCTGTNTDVGGYNYVSWYQQYPGKAPKLMIYEVNHRPSGVSNRFSGSKSGNTASLTISGLQAEDEADYYCSSYTYRNTYVFGTGTKVTVLG
2.65e+06
M0122-G06 (Fab, V domains shown) VH: EVQLLESGGGLVQPGGSLRLSCAASGFTFSWYAMHWVRQAPGKGLEWVSVISPSGGATRYADSVKGRFTISRDNSKNTLYLQMNSLRAEDTAVYYCVRASTVTTLFQHWGQGTLVTVSS VL: AQSALTQPASVSGSPGQSITISCTGTSSDVGGYNYVSWYQQHPGKAPKLMIYDVSKRPSGVSNRFSGSKSGNTASLTISGLQAEDEADYYCSSYTSSITLVVFGGGTKLTVLS
7.08e+06

// returns reported kon for input M0112-D07 (Fab, V domains shown) VH: EVQLLESGGGLVQPGGSLRLSCAASGFTFSFYSMSWVRQAPGKGLEWVSRIRPSGGRTDYADSVKGRFTISRDNSKNTLYLQMNSLRAEDTAVYYCARDRLYYYGSGSYYYGAFDIWGQGTMVTVSS VL: DIQMTQSPSSLSASVGDRVTITCRASQTIRTYLNWYQQKPGIAPKFLIYDASNLQTGVPSRFSGSGSGTHFTLTISSLQPEDFGTYYCQQSYGGPPTFGRGTKIEIKR
134000

So what's the measured kon for this one? M0103-A03 (Fab, V domains shown) VH: EVQLLESGGGLVQPGGSLRLSCAASGFTFSHYPMSWVRQAPGKGLEWVSYIRSGGYTTYADSVKGRFTISRDNSKNTLYLQMNSLRAEDTAVYYCARERVFCSGGRCGSYFDYWGQGTLVTVSS VL: DIQMTQSPSSVSASVGDRVTITCRASQDVRRFLAWYQQKPGKAPKLLIYAASSLQSGVPSRFSGSGSGTDFTLTISSLQPEDFATYYCQQANSFPITFGQGTRLEIKR
931000
